Listing of entries alongside the reported IC50.
Biological target: MMP-8 (Homo sapiens)
Construct: catalytic domain (^99Phe˜^262Gly) was amplified with PCR; His-tag; enterokinase digestion-site; made in house; host or cells: Escherichia coli
Sequence (P22894 99-262): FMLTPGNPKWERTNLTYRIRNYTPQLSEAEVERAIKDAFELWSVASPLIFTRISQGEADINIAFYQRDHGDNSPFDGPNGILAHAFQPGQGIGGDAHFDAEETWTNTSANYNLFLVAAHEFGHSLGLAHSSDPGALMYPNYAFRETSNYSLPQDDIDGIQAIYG
Experiment: Assay for inhibitory activities on MMPs (fluorogenic peptide substrate), MMP-8
Assay type: biochemical
Conditions: catalytic domain 99Phe-262Gly; substrate MOCAc-Pro-Leu-Gly-Leu-A2Pr(DNP)-Ala-Arg-NH2
Numbers only here, please. The scale is nM.

| Smiles string | IC50, nM |
| --- | --- |
| CC(C)[C@@H](NS(=O)(=O)c1ccc(-c2ncc(-c3ccc(F)cc3)o2)cc1)C(=O)O | 75.9 |
| CC(C)[C@H](NS(=O)(=O)c1ccc(-c2ncc(-c3ccc(Cl)cc3)o2)cc1)C(=O)O | 337 |
| COc1ccc(-c2cnc(-c3ccc(S(=O)(=O)N[C@@H](C)C(=O)O)cc3)o2)cc1 | 266 |

API: the following record is the query input.
Input line: Any idea what IC50 was measured for "CC(C)[C@@H](NS(=O)(=O)c1ccc(-c2ncc(-c3ccc(Br)cc3)o2)cc1)C(=O)O" ?
Output line: 57.3
